Target: human Y4 receptor (Homo sapiens)
Construct: expressed in transfected cells; host or cells: mouse fibroblast LM(tk-) cells, e.g. L-hY4-3 (ATCC CRL-11779)
Sequence (P50391 whole entry): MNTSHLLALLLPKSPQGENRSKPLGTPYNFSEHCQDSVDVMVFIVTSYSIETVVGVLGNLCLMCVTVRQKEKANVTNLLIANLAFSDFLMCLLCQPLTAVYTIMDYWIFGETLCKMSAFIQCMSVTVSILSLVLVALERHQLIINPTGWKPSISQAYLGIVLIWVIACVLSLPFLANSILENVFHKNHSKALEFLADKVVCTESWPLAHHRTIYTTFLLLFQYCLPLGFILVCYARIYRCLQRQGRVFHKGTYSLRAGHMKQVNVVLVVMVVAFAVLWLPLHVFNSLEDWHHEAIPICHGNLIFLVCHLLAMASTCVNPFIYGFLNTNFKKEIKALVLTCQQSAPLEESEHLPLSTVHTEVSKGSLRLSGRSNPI
Assay: Radioligand binding to membranes, cloned human Y4 receptor
Conditions: text b745; read-out: Ki (nM) NPY (Y4)
OBSERVABLE: Ki

# returns recorded Ki (system: human Y4 receptor (Homo sapiens)) for CC(C)Nc1nc(Cl)nc(NCC2CCC(CNS(=O)(=O)c3cccc4ccccc34)CC2)n1 (stereo not shown) > 100000 nM

---

Target: human Y5 receptor (Homo sapiens)
Construct: expressed in transfected cells; host or cells: mouse fibroblast LM(tk-) cells, e.g. L-hY5-7 (ATCC CRL-11995)
Experiment: Radioligand binding to membranes, cloned human Y5 receptor
Details: Table 1; read-out: Ki (nM) hNPY-5
OBSERVABLE: Ki (nM)
Your answer should be a plain number; it is taken to be in nM.

What does the record list as Ki for CC(C)Nc1nc(NCC2CCC(CNS(=O)(=O)c3cccc4ccccc34)CC2)nc(N2CCN(C(C)C)CC2)n1 (centres unmarked) [Example 28] ? 22

Entry under review: CCN(CC)c1nc(NCC2CCC(CNS(=O)(=O)c3cccc4ccccc34)CC2)nc(NC(C)C)n1 (centres unmarked) [Example 19] . Reported Ki? 53

Which Ki is listed for CC(C)Nc1nc(NCC2CCC(CNS(=O)(=O)c3cccc4ccccc34)CC2)nc(NC(C)C)n1 (centres unmarked) [Example 4] ? 23

# get_value(readout='Ki', item= COCCCNc1nc(NCC2CCC(CNS(=O)(=O)c3cccc4ccccc34)CC2)nc(NC(C)C)n1 (centres unmarked) [Example 13] ) 22

Requested field: Ki. Item: COC[C@@H]1CCCN1c1nc(NCC2CCC(CNS(=O)(=O)c3cccc4ccccc34)CC2)nc(NC(C)C)n1 (some centres unmarked) [Example 21] 71

---

Target: human Y5 receptor (Homo sapiens)
Construct: expressed in transfected cells; host or cells: mouse fibroblast LM(tk-) cells, e.g. L-hY5-7 (ATCC CRL-11995)
Assay: Radioligand binding to membranes, cloned human Y5 receptor
Details: Table 6; read-out: Ki, nM hNPY-5
OBSERVABLE: Ki (nM)
Return type: number; implicit unit nM.

What value of measured Ki is listed for `O=[N+]([O-])c1ccccc1S(=O)(=O)NCCCCCCNc1nc2c(s1)CCSc1ccccc1-2` ? 7.1

// query Ki value for entry `O=[N+]([O-])c1ccccc1S(=O)(=O)NC[C@H]1CC[C@H](Nc2nc3c(s2)CCSc2ccccc2-3)CC1` 11.5

// Ki lookup, key: `O=S(=O)(NCCCCCNc1nc2c(s1)CCSc1ccccc1-2)c1ccccc1F` 3.7

Suppose we examine the compound `CCS(=O)(=O)NCCCCCCNc1nc2c(s1)CCSc1ccccc1-2` ; what Ki value has been reported? 5.4

---

Target: human Y5 receptor (Homo sapiens, UniProt Q15761)
Construct: expressed in transfected cells; host or cells: mouse fibroblast LM(tk-) cells, e.g. L-hY5-7 (ATCC CRL-11995)
Experiment: Functional assay: radioimmunoassay of cAMP in stably transfected cells
Format: cell-based
Conditions: Functional Antagonism Data, Table 7
OBSERVABLE: Kb (nM)
Lab book: enter the figure in nM, no units written.

Query for human Y5 receptor (Homo sapiens, UniProt Q15761): what Kb does the record show for CCNc1nc(NCC)nc(NCC2CCC(CNS(=O)(=O)c3cccs3)CC2)n1 (stereo not drawn) ? 158

Enter reported Kb observed with human Y5 receptor (Homo sapiens, UniProt Q15761) for CNc1nc(NCC2CCC(CNS(=O)(=O)c3cccc4ccccc34)CC2)nc(NC(C)C)n1 (stereo not drawn) 200

Give recorded Kb with human Y5 receptor (Homo sapiens, UniProt Q15761) for the following compound: CC(C)Nc1nc(Cl)nc(NCC2CCC(CNS(=O)(=O)c3cccc4ccccc34)CC2)n1 (stereo not drawn) 1000

Observed Kb on human Y5 receptor (Homo sapiens, UniProt Q15761) for `CS(=O)(=O)NC[C@H]1CC[C@H](Nc2nc3c(s2)CCSc2ccccc2-3)CC1` , please. 2.51

Query the reported Kb for human Y5 receptor (Homo sapiens, UniProt Q15761); item: `Cc1nc(-c2csc(N[C@H]3CC[C@H](CNS(=O)(=O)N(C)C)CC3)n2)c(C)s1` 3.98

Request body: readout Kb, system human Y5 receptor (Homo sapiens, UniProt Q15761), query `O=S(=O)(NC[C@H]1CC[C@H](Nc2nc3c(s2)CCSc2ccccc2-3)CC1)c1cccc2cccnc12` . Return the value. 20

---

Target: human Y5 receptor (Homo sapiens, UniProt Q15761)
Construct: expressed in transfected cells; host or cells: mouse fibroblast LM(tk-) cells, e.g. L-hY5-7 (ATCC CRL-11995)
Sequence (Q15761 1-445): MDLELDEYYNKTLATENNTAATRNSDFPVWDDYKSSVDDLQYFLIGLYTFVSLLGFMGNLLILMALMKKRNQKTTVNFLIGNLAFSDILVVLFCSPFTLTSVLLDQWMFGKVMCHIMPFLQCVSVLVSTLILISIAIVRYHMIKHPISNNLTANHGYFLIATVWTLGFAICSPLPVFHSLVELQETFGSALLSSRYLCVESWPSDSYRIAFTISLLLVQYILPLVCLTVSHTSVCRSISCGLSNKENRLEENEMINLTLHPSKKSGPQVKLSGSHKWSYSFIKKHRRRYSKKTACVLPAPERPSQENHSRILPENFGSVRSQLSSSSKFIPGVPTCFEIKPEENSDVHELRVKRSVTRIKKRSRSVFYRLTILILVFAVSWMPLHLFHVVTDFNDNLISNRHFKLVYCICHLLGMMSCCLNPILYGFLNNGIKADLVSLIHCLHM
Experiment: Radioligand binding to membranes, cloned human Y5 receptor
Conditions: Table 6; read-out: Ki, nM hNPY-5
OBSERVABLE: Ki (nM)
Give just the numeric value; nM need not be written.

What does the record list as Ki for `O=S(=O)(NCCCCCCNc1nc2c(s1)CCSc1ccccc1-2)c1c(Cl)cccc1Cl` ? 25

Could you share which Ki value was measured for `Cc1ccc(S(=O)(=O)NC[C@H]2CC[C@H](Nc3nc4c(s3)CCSc3ccccc3-4)CC2)cc1` ? 6.6

May I ask what Ki has been recorded for `O=S(=O)(NC[C@H]1CC[C@H](Nc2nc3c(s2)CCSc2ccccc2-3)CC1)c1ccc(F)cc1F` ? 7.9

Sample `O=S(=O)(NCCCCCNc1nc2c(s1)CCSc1ccccc1-2)c1cccs1` — what was its Ki? 2.6

Which value of Ki has been reported for `O=S(=O)(NC[C@H]1CC[C@H](Nc2nc3c(s2)CCSc2ccccc2-3)CC1)c1ccc(-c2ccon2)s1` in the records? 34

Suppose we examine the compound `O=[N+]([O-])c1ccccc1S(=O)(=O)NCCCCCNc1nc2c(s1)CCSc1ccccc1-2` ; what Ki value has been reported? 5.2

Field request: Ki | item: `O=S(=O)(NCCCCCCNc1nc2c(s1)CCSc1ccccc1-2)c1ccc(-c2ccon2)s1` 29

// lookup Ki for `COc1cccc(Br)c1S(=O)(=O)NCCCCCCNc1nc2c(s1)CCSc1ccccc1-2` 7.9

---

Target: human Y5 receptor (Homo sapiens)
Construct: expressed in transfected cells; host or cells: mouse fibroblast LM(tk-) cells, e.g. L-hY5-7 (ATCC CRL-11995)
Sequence (Q15761 1-445): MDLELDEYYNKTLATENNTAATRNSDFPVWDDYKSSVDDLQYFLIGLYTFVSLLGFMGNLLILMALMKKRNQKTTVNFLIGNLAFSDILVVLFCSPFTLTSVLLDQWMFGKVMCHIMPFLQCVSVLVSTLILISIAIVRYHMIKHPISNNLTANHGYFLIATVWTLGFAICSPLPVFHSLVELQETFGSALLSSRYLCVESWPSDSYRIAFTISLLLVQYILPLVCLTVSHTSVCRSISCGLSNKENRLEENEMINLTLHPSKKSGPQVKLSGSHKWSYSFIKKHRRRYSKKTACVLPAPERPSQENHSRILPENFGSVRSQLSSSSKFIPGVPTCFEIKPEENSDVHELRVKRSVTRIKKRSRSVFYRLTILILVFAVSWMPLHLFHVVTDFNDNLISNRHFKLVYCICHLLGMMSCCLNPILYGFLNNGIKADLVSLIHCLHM
Test: Radioligand binding to membranes, cloned human Y5 receptor
Details: Table 2; read-out: Ki (nM) hNPY-5
Provide the recorded Ki for the entries that follow.
Answer with a number only, understood to be in nM.

Which Ki value is on record for CCNc1nc(NCC)nc(NCC2CCC(CNS(=O)(=O)c3cccnc3)CC2)n1 (stereo not drawn) [Example 34] ? 427

Looking for the measured Ki of CCNc1nc(NCC)nc(NCC2CCC(CNS(=O)(=O)c3ccc(OC)cc3)CC2)n1 (stereo not drawn) [Example 35] , can you help? 82

Entry CCNc1nc(NCC)nc(NCC2CCC(CNS(=O)(=O)c3ccc(C(C)(C)C)cc3)CC2)n1 (stereo not drawn) [Example 29] : reported Ki = ? 50
